# method: Log D (pH7.4 shake flask)
# Type: physicochemical
# details: pH 7.4; 1-octanol/phosphate buffer shake flask; read-out: mLogD (pH 7.4)
readout: logD
Output spec: single numeric token, no unit.

# annotated cases, reported logD shown
# compound, reportedValue
records = [
    ("CC(C)(O)c1cc(F)c(CC(=O)Nc2ccnc(C(=O)NC3(C(F)(F)F)CC3)c2)cc1O [Example 2]", 3.1),
    ("O=C(Cc1cc(O)c(C(CO)C(F)(F)F)cc1F)Nc1ccnc(C(=O)NC2(C(F)(F)F)CC2)c1 (stereo not drawn) [Example 17]", 3.3),
    ("CC(C)(C#N)c1cc(F)c(CC(=O)Nc2ccnc(C(=O)NC3(C(F)(F)F)CC3)c2)cc1O [Example 2.3]", 2.9),
]

Reported logD, compound CC(C)(C)c1cc(F)c(CC(=O)Nc2ccnc(C(=O)NC3(C#N)CC3)c2)cc1O [Example 1.5] : ____ 3.7

What value of logD has been recorded for this entry: CC(C)(CO)c1cc(F)c(CC(=O)Nc2ccnc(C(=O)NC3(C(F)(F)F)CC3)c2)c(F)c1O [Example 16.4] 3.6

Can you share its logD? I mean this compound: CC(C)(C#N)NC(=O)c1cc(NC(=O)Cc2cc(O)c(C(C)(C)C)cc2F)c(F)cn1 [Example 3] 3.9

What value of logD has been recorded for this entry: CC(C#N)NC(=O)c1cc(NC(=O)Cc2cc(O)c(C(C)(C)C)cc2F)ccn1 (stereo not drawn) [Example 1.3] 3.9

Any idea what its logD is? The compound is CC(C)(CCO)c1cc(F)c(CC(=O)Nc2ccnc(C(=O)NC3(C(F)(F)F)CC3)c2)cc1O [Example 11] 3.7

Look up logD: O=C(Cc1cc(O)c(C2(C(F)(F)F)CCO2)cc1F)Nc1ccnc(C(=O)NC2(C(F)(F)F)CC2)c1 (stereo not drawn) [Example 2.10] 4.2

Which value of logD has been reported for CC(C)(CO)c1cc(F)c(CC(=O)Nc2ccnc(C(=O)N[C@H]3CCC[C@@H]3O)c2)cc1O [Example 12.2] in the records? 2.6

May I ask what logD has been recorded for CCC(C)(O)c1cc(F)c(CC(=O)Nc2ccnc(C(=O)NC3(C(F)(F)F)CC3)c2)cc1O (stereo not drawn) [Example 2.11] ? 3.6

* * *

# tgt: human TMEM16A (TMEM16Aabc variant) (Homo sapiens, UniProt Q5XXA6, DEL476-501)
# Sequence (Q5XXA6 with tags, fused parts or gaps isoform Q5XXA6-5 DEL539-564): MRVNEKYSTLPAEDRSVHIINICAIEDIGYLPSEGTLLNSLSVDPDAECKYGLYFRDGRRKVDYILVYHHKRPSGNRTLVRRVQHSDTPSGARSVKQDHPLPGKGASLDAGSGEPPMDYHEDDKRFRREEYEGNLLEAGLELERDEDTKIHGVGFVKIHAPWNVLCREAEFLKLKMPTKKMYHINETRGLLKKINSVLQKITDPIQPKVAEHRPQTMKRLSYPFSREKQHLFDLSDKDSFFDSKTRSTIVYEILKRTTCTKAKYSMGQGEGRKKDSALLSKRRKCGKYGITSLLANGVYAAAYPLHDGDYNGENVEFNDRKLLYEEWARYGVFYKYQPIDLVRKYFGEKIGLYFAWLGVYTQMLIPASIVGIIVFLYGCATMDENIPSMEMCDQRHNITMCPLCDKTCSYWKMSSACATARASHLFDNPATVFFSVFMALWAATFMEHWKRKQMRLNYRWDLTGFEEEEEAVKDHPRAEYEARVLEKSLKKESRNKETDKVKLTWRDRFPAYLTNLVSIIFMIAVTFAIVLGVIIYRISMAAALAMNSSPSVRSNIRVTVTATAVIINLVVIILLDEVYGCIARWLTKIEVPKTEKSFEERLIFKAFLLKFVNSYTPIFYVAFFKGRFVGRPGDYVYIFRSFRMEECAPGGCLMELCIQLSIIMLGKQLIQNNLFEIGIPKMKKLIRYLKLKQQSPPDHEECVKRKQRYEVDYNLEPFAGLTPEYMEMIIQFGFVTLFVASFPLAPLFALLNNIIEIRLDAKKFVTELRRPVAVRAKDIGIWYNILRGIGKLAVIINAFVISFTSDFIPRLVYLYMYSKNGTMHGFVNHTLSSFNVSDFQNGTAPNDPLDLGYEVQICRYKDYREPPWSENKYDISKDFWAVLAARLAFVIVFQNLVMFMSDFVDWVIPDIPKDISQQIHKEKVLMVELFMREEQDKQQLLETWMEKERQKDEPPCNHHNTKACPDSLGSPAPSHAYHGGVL
# method: Automated whole-cell patch clamp (Qpatch) TMEM16A potentiator assay in recombinant FRT cells
# details: minimum n = 2
readout: log10 EC50 (log10 of the value in nM)
The base-10 logarithm of EC50, taken with EC50 in nM, is what appears here.

# count of solved cases: 4
# molecule, tgt, readout, reportedValue
rows = [
    ("CC(CO)c1cc(F)c(CC(=O)Nc2ccnc(C(=O)NC3(C)CCOCC3)c2)cc1O (centres unmarked) [Example 16.3]", "human TMEM16A (TMEM16Aabc variant) (Homo sapiens, UniProt Q5XXA6, DEL476-501)", "log10 EC50", 2.61),
    ("CC(C)(C)NC(=O)c1cc(NC(=O)Cc2cc(O)c(C(C)(C)C#N)cc2F)ccn1 [Example 2.2]", "human TMEM16A (TMEM16Aabc variant) (Homo sapiens, UniProt Q5XXA6, DEL476-501)", "log10 EC50", 2.18),
    ("CC(C#N)(CO)NC(=O)c1cc(NC(=O)Cc2cc(O)c(C(C)(C)C)cc2F)ccn1 (centres unmarked) [Example 1.6]", "human TMEM16A (TMEM16Aabc variant) (Homo sapiens, UniProt Q5XXA6, DEL476-501)", "log10 EC50", 1.60),
    ("CC(C)(C)NC(=O)c1cc(NC(=O)Cc2cc(O)c(C(C)(C)O)cc2F)ccn1 [Example 7]", "human TMEM16A (TMEM16Aabc variant) (Homo sapiens, UniProt Q5XXA6, DEL476-501)", "log10 EC50", 1.83),
]

Looking for the measured log10 EC50 of CC(C#N)NC(=O)c1cc(NC(=O)Cc2cc(O)c(C(C)(C)C)cc2F)ccn1 (centres unmarked) [Example 1.3] , can you help? 2.02

I'd like to know its log10 EC50. The molecule in question is CC(C)(C)c1cc(F)c(CC(=O)Nc2ccnc(C(=O)NC3(C#N)CC3)c2)cc1O [Example 1.5] 1.81

Suppose we examine the molecule CC(C)(CO)c1cc(F)c(CC(=O)Nc2ccnc(C(=O)N[C@H]3CCC[C@@H]3O)c2)cc1O [Example 12.2] ; what log10 EC50 value has been reported? 2.38

Suppose we examine the molecule CC(O)(c1cc(F)c(CC(=O)Nc2ccnc(C(=O)NC3(C(F)(F)F)CC3)c2)cc1O)C1CC1 (centres unmarked) [Example 2.8] ; what log10 EC50 value has been reported? 1.89

May I ask what log10 EC50 has been recorded for N#CC1(c2cc(F)c(CC(=O)Nc3ccnc(C(=O)NC4(C(F)(F)F)CC4)c3)cc2O)CCOCC1 [Example 2.9] ? 2.17

Sample CC(C)(CO)c1cc(F)c(CC(=O)Nc2ccnc(C(=O)NC3(C(F)(F)F)COC3)c2)cc1O [Example 12.1] — what was its log10 EC50? 1.72

For the molecule CC(C)(C#N)NC(=O)c1cc(NC(=O)Cc2ccc(C(C)(C)C)c(O)c2)ccn1 [93.4 of PCT/GB2019/050209, reference compound] , what log10 EC50 is on record? 1.81

Please look up its log10 EC50: CC(C)(C)NC(=O)c1cc(NC(=O)Cc2cc(O)c(C(C)(C)C)cc2F)ccn1 [91 of PCT/GB2019/050209, reference compound] 1.74

* * *

// reported Papp B→A at 2 h, 10 μM per item
# method: Caco-2 permeability assay
# Type: in vitro ADME
# details: human, Caco-2, pH 7.4; basolateral to apical; 10 μM; 2 hours; pH7.4
Provide the reading as a plain figure in ×10⁻⁶ cm/s.

These recorded examples may help you get a feel for the data.
# compound, Papp B→A at 2 h, 10 μM / ×10⁻⁶ cm/s
records = [
    ("CC(C)(CO)c1cc(Cl)c(CC(=O)Nc2ccnc(C(=O)NC3(C(F)F)CC3)c2)cc1O [Example 15.3]", 7.2),
    ("Cc1cc(C(C)(C)CO)c(O)cc1CC(=O)Nc1ccnc(C(=O)NC2(C(F)(F)F)CC2)c1 [Example 14.1]", 6),
]

So what's the measured Papp B→A at 2 h, 10 μM for this one? CC(C)(CO)c1cc(Cl)c(CC(=O)Nc2ccnc(C(=O)NC3(C(F)(F)F)CC3)c2)cc1O [Example 14] 4.9

* * *

# method: Log D (pH7.4 shake flask)
# Format: physicochemical
# details: pH 7.4; 1-octanol/phosphate buffer shake flask; read-out: mLogD (pH 7.4)
Reported values of logD for individual entries

# compound, reportedValue
measured = [
    ("CC1(NC(=O)c2cc(NC(=O)Cc3cc(O)c(C(C)(C)C)cc3F)ccn2)CC1", "> 4.2"),
]

Would you kindly look at the next entry?
Data request, read-out logD, for C#CC1(NC(=O)c2cc(NC(=O)Cc3cc(O)c(C(C)(C)C)cc3F)ccn2)CCCC1 > 4.5

* * *

# tgt: human TMEM16A (TMEM16Aabc variant) (Homo sapiens, UniProt Q5XXA6, DEL476-501)
# method: Automated whole-cell patch clamp (Qpatch) TMEM16A potentiator assay in recombinant FRT cells
# details: minimum n = 2
readout: EC50 (nM)
State just the number; it will be interpreted in nM.

Check out these entries, answers already filled in.
# compound, reportedValue
records = [
    ("CC(C)(C)c1cc(Cl)c(CC(=O)Nc2ccnc(C(=O)NC3(C#N)CC3)c2)cc1O", 52),
    ("CC(C)c1cc(C(C)(C)C)c(O)cc1CC(=O)Nc1ccnc(C(=O)NC(C)(C)C)c1", 99),
    ("CC(C)(CO)c1cc(F)c(CC(=O)Nc2ccnc(C(=O)NC3(C(F)F)CC3)c2)cc1O", 60),
    ("C#CC(C)(C)NC(=O)c1cc(NC(=O)Cc2cc(O)c(C(C)(C)CO)cc2Cl)ccn1", 41),
    ("CC1(NC(=O)c2cc(NC(=O)Cc3cc(O)c(C(C)(C)CO)cc3Cl)ccn2)CC(F)(F)C1", 36),
]

Fill in the recorded EC50 for this compound, with human TMEM16A (TMEM16Aabc variant) (Homo sapiens, UniProt Q5XXA6, DEL476-501) as test system: CC(C)(C#N)NC(=O)c1cc(NC(=O)Cc2cc(O)c(C3(C(F)(F)F)CCO3)cc2F)ccn1 (centres unmarked) 27

Hi! What's the reported EC50 for CC(C)(C)c1cc(Cl)c(CC(=O)Nc2ccnc(C(=O)NC3(C(F)(F)F)CC3)c2)cc1O on human TMEM16A (TMEM16Aabc variant) (Homo sapiens, UniProt Q5XXA6, DEL476-501)? 57

Query for human TMEM16A (TMEM16Aabc variant) (Homo sapiens, UniProt Q5XXA6, DEL476-501): what EC50 does the record show for O=C(Cc1cc(O)c(C2(CO)CCOCC2)cc1F)Nc1ccnc(C(=O)NC2(C(F)(F)F)CC2)c1 ? 279

API: value(readout=EC50, system=human TMEM16A (TMEM16Aabc variant) (Homo sapiens, UniProt Q5XXA6, DEL476-501)) for record Cc1cc(C(C)(C)CO)c(O)cc1CC(=O)Nc1ccnc(C(=O)NC2(C(F)(F)F)CC2)c1 45

Lab request: please report EC50 under test system human TMEM16A (TMEM16Aabc variant) (Homo sapiens, UniProt Q5XXA6, DEL476-501) for CC(C)(O)c1cc(Cl)c(CC(=O)Nc2ccnc(C(=O)NC3(C(F)(F)F)CC3)c2)cc1O 46

What is its EC50 for human TMEM16A (TMEM16Aabc variant) (Homo sapiens, UniProt Q5XXA6, DEL476-501)? Entry: C#CC(C)(C)NC(=O)c1cc(NC(=O)Cc2cc(O)c(C(C)(C)C)cc2F)ccn1 26
